test system: HEP-G2 cells; experiment: MTT cell viability assay, HEP-G2 cells; settings: HEP-G2 cells, MTT assay, 24 h exposure; 25% reduction of viability
Consider the following molecules and their measured LD25 readings.
// return numeric value only (unit: µM, not printed)

Solved entries (count: 3):
molecule: Cc1cc(N2CCOCC2)nc(N2CCOCC2)c1CNC(=O)c1ccc(F)cc1 [55a]
measurementType: LD25
readoutNumber: 22
//
molecule: CCCNC(=O)c1ccc(NCc2ccc(F)cc2)cc1CC.Cl
measurementType: LD25
readoutNumber: 60
//
molecule: Cc1cc(NCc2ccc(F)cc2)nc(N2CCOCC2)c1CNC(=O)OCC(C)C
measurementType: LD25
readoutNumber: 24

Request: Reported LD25 for HEP-G2 cells, given CCCCNC(=O)c1c(C)cc(NCc2ccc(F)cc2)nc1OC [36a] ?
Result: 24

Request: Reported LD25 for HEP-G2 cells, given CCCCNC(=O)c1ccc(NCc2ccc(F)cc2)nc1N ?
Result: 148

Request: Reported LD25 for HEP-G2 cells, given COc1cc(NCc2ccc(F)cc2)ccc1C(=O)NCC(C)C [28a] ?
Result: 31

Request: Reported LD25 for HEP-G2 cells, given Cc1cc(N2CCOCC2)nc(N2CCOCC2)c1CNC(=O)Cc1cc(F)cc(F)c1 [55b] ?
Result: 20

Request: Reported LD25 for HEP-G2 cells, given CC(C)CNC(=O)c1ccc(NCc2ccc(F)cc2)cc1N ?
Result: 56
